# Tested on: SR leukemia
# EXPERIMENT DESCRIPTION: NCI-60 one-dose screen, 48 h (100 = growth as untreated, 0 = no growth, -100 = all killed)
# REPORTED CONDITIONS: 10 µM unless noted
About 83,000 compounds went through this panel and 20% of them were active in at least one assay; those are over-represented in the sample as a whole. Activity calls are given as the source filed them. How the source made its calls: active means growth percent below 10; inactive means the rest.
growth for assorted compounds

Cc1ccc(-c2cnc3sc(C(=O)NCCc4ccccc4)c(C)n23)cc1 = 110% (inactive)

Need growth of CCOC(=O)c1sc2ncc(-c3ccc(OC)cc3)n2c1C , thanks. 104% (inactive)

Need growth of Cc1ccc(-c2nc(N3CCN(CC(=O)Nc4ccc(Cl)cc4)CC3)c3ccccc3n2)cc1 , thanks. 79.1% (inactive)

Need growth of NCCNc1nc2ccccc2c2c(=O)c3cc(F)ccc3sc12 , thanks. -20.5% (active)
